Target: T1, Killin/N8-50 peptide (Homo sapiens, UniProt B2CW77 SEQ:8-49)
T1 chain: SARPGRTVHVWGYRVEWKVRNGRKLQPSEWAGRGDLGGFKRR
Assay: EMSA; apparent Kd; 20 mM Tris-Cl pH 8.4, 25 mM KCl, 1.5 mM MgCl2, 100 ug/mL BSA, RT
Settings: protein: synthetic; tags: chemically synthesized 42 aa peptide (Sigma-Genosys, at least 70% purity); label: 32P (T4 PNK)
Protocol: After annealing, probes for artificial replication fork (LL and RL) or double-stranded DNA template (LL and RLM) were end-labeled with α-³²P-dATP (Perkin-Elmer) using Klenow (New England Biolab). Single-stranded oligonucleotide (LL) was end-labeled with […] (Perkin-Elmer) using T4 polynucleotide kinase (New England Biolab). […] For binding kinetics, bands from DNA-peptide complex were excised and the radioactivity was determined by scintillation counting. […]
pKd: −log10 of the molar value.
VALUE TYPE: pKd

INSERT INTO measurements (binder, number) VALUES
  ('TTTGCACGTCGGATCCGACCCAGACTACGGAGGCC (ssDNA) [LL single-stranded oligonucleotide]', 6.30);
